target: human CaSR (Homo sapiens, UniProt P41180); construct: host or cells: CCL39 hamster lung fibroblasts stably transfected (HCAR), Geneticin selection; assay: FLIPR-based functional CaSR calcium assay in HCAR cells; type: cell-based; conditions: EC50 in 0.5% BSA, 0.5% BSA
Sequence (P41180 20-1078): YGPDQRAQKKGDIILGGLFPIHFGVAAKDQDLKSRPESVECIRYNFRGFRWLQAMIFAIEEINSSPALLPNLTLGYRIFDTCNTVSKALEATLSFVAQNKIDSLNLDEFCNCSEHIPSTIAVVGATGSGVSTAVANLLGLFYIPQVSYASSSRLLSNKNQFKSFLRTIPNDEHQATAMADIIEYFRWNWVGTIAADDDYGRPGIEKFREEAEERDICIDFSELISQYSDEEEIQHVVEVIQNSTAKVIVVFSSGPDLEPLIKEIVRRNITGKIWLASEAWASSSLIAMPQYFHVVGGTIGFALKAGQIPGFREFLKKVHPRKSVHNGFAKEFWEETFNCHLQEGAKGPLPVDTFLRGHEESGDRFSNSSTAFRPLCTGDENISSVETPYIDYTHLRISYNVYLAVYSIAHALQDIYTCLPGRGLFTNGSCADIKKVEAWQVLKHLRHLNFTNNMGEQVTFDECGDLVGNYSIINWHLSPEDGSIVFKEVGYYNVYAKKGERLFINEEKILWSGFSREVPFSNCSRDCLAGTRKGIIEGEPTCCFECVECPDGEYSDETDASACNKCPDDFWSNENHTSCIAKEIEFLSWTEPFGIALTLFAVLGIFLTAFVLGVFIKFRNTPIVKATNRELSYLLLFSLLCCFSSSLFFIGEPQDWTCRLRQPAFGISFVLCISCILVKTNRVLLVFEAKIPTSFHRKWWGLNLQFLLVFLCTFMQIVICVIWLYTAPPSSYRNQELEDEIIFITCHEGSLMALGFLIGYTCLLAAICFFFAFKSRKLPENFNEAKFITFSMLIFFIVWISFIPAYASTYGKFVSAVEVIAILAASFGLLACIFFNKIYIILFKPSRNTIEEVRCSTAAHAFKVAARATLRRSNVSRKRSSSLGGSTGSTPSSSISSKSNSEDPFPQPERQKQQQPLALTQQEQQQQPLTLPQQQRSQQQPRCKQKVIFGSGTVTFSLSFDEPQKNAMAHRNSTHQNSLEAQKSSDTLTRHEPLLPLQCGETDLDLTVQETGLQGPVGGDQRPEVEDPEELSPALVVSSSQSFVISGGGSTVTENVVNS

# Compound, EC50 (nM)
records = [
    ("Cc1cc(C(=O)NCCCCNC(=O)Cc2ccc(N3CC[C@H](N[C@H](C)c4cccc5ccccc45)C3)cc2)ccc1C1=C2C=CC(=[N+](C)C)C=C2[Si](C)(C)c2cc(N(C)C)ccc21 [EvoSiR4]", 102),
]

###

target: human CaSR (Homo sapiens, UniProt P41180); construct: host or cells: CCL39 hamster lung fibroblasts stably transfected (HCAR), Geneticin selection; test: FLIPR-based functional CaSR calcium assay in HCAR cells; assay type: cell-based; conditions: EC50, no wash, 5 min incubation of HCAR cells, 0.1% BSA, no wash

# Molecule, EC50 / nM
measured = [
    ("Cc1cc(C(=O)NCCCCNC(=O)Cc2ccc(N3CC[C@H](N[C@H](C)c4cccc5ccccc45)C3)cc2)ccc1C1=C2C=CC(=[N+](C)C)C=C2[Si](C)(C)c2cc(N(C)C)ccc21 [EvoSiR4]", 37),
]

###

biological target: human CaSR (Homo sapiens); construct: host or cells: CCL39 hamster lung fibroblasts stably transfected (HCAR), Geneticin selection; experiment: FLIPR-based functional CaSR calcium assay in HCAR cells; format: cell-based; settings: EC50, 3× wash, 5 min incubation of HCAR cells, 0.1% BSA, 3× wash

# Compound, EC50
data = [
    ("Cc1cc(C(=O)NCCCCNC(=O)Cc2ccc(N3CC[C@H](N[C@H](C)c4cccc5ccccc45)C3)cc2)ccc1C1=C2C=CC(=[N+](C)C)C=C2[Si](C)(C)c2cc(N(C)C)ccc21 [EvoSiR4]", "620 nM"),
]

Reference for the values: paper PMC11091967
